tested on: K4 kissing-loop RNA reporter; assay: apparent KD of K4 kissing-loop reporter; higher = weaker reporter binding; settings: Eterna round: R107; input ligand: arginine 13.2 mM
Quick reference for apparent KD of K4 kissing-loop reporter among some sequences
Just the number please, in nM, no unit attached.

Reference set (2 entries):
• GAUCAUAGCACGGCCGCCACUGAUAUGCCGUGCUAUACGAGUGAUGUUCGUAAUUAUACGGGUAUCAGGACCGGGUGCAACGGUA [Tryp B SS t2] = 89.3
• UGAUCUCGGCAGUGAUGUUGCAUAUGAGAAGGAGCGCACGAAAGUGCAGGUAGGUCGCUCAGCCAAAGAAAAUAAAACGAGAUCU [#SwitchBubble #K4Early] = 121

Now consider the entry below.
GET /values?readout=apparent KD of K4 kissing-loop reporter&item= ACCUAGUAGACAGGAUAUCACGAUGACAGUGAUGUUGUCAUCAUCGAUUUGAGGAAACUCAGAUCGUGAGAAGGGUCUAACGACU [FMN B SS t7a] 173

* * *

Quick reference for apparent KD of MS2 coat protein among some sequences
system: MS2 coat protein; experiment: apparent KD of MS2 coat protein, switch ON state; designed switch direction (-1 OFF switch, 1 ON switch): 1; higher = weaker reporter binding; details: FMN input: 0 or 200 uM; Eterna round: R93 (includes R88 designs)
Just the number please, in nM, no unit attached.

Reference set (5 entries):
* AGGAAACAUGAGGAUCACCCAUGUAAAGAAGGGUGAGGAUAUACAAAGAAAAGAAAGAAAGUAGAAGGCACAAAAG [Mongoose] | 233
* AACAAUCUAUCUGAGGAUAUCAUAUAAAAGACAUGAGGAUCACCCAUGUAGCAGGAAACUGCAUAUGAGAAGGCAGAUAGAUUGA [SS2: 1121] | 7.5
* AAAAAACAUGAGGAUCACCCAUGUAAAAAAAACACAGGAUAUCCCUUUAAAAAAAAAAAAGGAGAAGGGUGAAAAA [Nob's Hobby 4 - Jieux - Same State 1] | 20.4
* AACAAUCUAUCUGAGGAUAUGUGUCGAAAGACAUGAGGAUCACCCAUGUCAAAACAUGGAAAGAUACAGAAGGCAGAUAGAUUGA [SS2: 1158] | 8.33
* ACCCGACAUGAGGAUCACCCAUGUAAACAAUCAUGAGGAUAUCCGGAGCAAAUGCUCAAGGGAGAAGGCAUAAAAG [Onrequus] | 29.5

Now consider the entry below.
// fetch MS2 coat protein apparent KD of MS2 coat protein for GGAGCCGGCACUGAGGAUAUUCAUAUUAAAACAUGAGGAUCACCCAUGUAGGCCAGAAGGCCUUGGGAGAAGGCAGGUCGGCCCG [Bibimaor] 18.5

* * *

Quick reference for apparent KD of MS2 coat protein among some sequences
test system: MS2 coat protein; test: apparent KD of MS2 coat protein; higher = weaker reporter binding; settings: Eterna round: R107; input ligand: theophylline 20 uM
Just the number please, in nM, no unit attached.

Reference set (5 entries):
- AAAAGAGGUGGAAGGAGCGGGAGACAUGAGGAUCACCCAUGUGAAGUGACGAAAGGAUCAUCCCAGGUAGGUCGCCAUGUCGAAA [csstmullin]: 44.6
- AUAUGGCGAGAUGAUACCAGACACAUGAGGAUCACCCAUGUUGAUGGUAAGUCUGCAUAUGUCCCUUGGCAGCAUAGCGACAUAU [X-TheoB-ms2@23]: 11.9
- AAAAGAGGUGGAAGGAGCGGGAGACAUGAGGAUCACCCAUGUGAAGUGACGAAAGGAUCAGCCCAGGUAGGUCGCCAUGUCGAAA [yuiiumullin]: 73.2
- AACAUGAGGAUCACCCAUGUAAAACCGGUACGAGGACCGGUACGGCCGCCACUCGAAACAUGAGGAUCACCCAUGUAAUAAUAUU [Same State Trypophan A GF 21]: 75
- AUCAUGUAAUCAGAUACCAGACAUCUUUUAAUACAUAUUACAUGAGGAUCACCCAUGUUGGUCCCUUGGCAGCUGAAAUAUUUUU [JR_Nu_SSTheophyB_Sub027]: 191

// fetch MS2 coat protein apparent KD of MS2 coat protein for UGUUUGGUGCGCGAGUGUUGGAUGAUUGAUACCAGUGAAGAAGAGCGCCCUUGGCAGCGAAUCCUAACAUGAGGAUCACCCAUGU [5.V] 57.7

* * *

test system: MS2 coat protein; experiment: apparent KD of MS2 coat protein, switch OFF state (with FMN for OFF switches, without FMN for ON switches); designed switch direction (-1 OFF switch, 1 ON switch): -1; higher = weaker reporter binding; settings: FMN input: 0 or 200 uM; Eterna round: R93 (includes R88 designs)
Reported endpoint: apparent KD of MS2 coat protein (nM)
Just the number please, in nM, no unit attached.

• AAGAACGUAGGAUAUACUAAAGAAAUGAAAAGAAAUAAAGAACAUGAGGAUCACCCAUGUAGAAGGACGAAGAA [Nebdjefare] = 25.2
• AAGACUACAGGAUAUACAUGAGGAUCACCCAUGUAACUGACAAGUAGAUGACGGAGAAGUAGAAGGGUAGUCAA [Ruby 36] = 31.8
• AAGAAGCAAGGAUAUACAUGAGGAUCACCCAUGUAAAAGAAAGAAAAGGGAAAGAAAAGUAGAAGGUGCGAAAA [Ruby 70] = 51.9

Now consider the entry below.
// fetch MS2 coat protein apparent KD of MS2 coat protein for GGUUGGCGAGGAUAUACAUGAGGAUCACCCAUGUGAGAAAAAAAAGUGAGAAAGAAAAGUAGAAGGCGCUGACG [salish99-ex3-49] 157

* * *

Quick reference for apparent KD of MS2 coat protein among some sequences
system: MS2 coat protein; test: apparent KD of MS2 coat protein; designed switch direction (-1 OFF switch, 1 ON switch): 1; higher = weaker reporter binding; settings: input ligand: FMN 200 uM
Just the number please, in nM, no unit attached.

• AUGGUGCAGGUACAGGAUAUGUUGCUCGUAACAUGAGGAUCACCCAUGUACCUAUGAGAUUAAAUGCAGAAGGGUGCACACCAAA [Mat - Same State 2 - Mod of UCT - D90] (Eterna round: R96, puzzle: Same State 2) = 38.1

GET /values?readout=apparent KD of MS2 coat protein&item= AGGAUGAGAACAGGAUAUUCGACAUGAGGAUCACCCAUGUGGCAAGUAGGUGACGAUGAAUGACGGAAGAAGGGUUACGAGGAG [Same State NG2] (Eterna round: R96, puzzle: Same State NG 2) 375

* * *

test system: K4 kissing-loop RNA reporter; test: apparent KD of K4 kissing-loop reporter; higher = weaker reporter binding; settings: Eterna round: R107; input ligand: theophylline 20 uM;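 note: bound reporter read as fluorescence of individual clusters on recovered sequencing chips by microscopy, with normalized cluster intensities fitted with a binding model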
Please assign a class to every record based on measured apparent KD of K4 kissing-loop reporter, with ranges b0 = under 200 nM, b1 = from 200 nM up to 500 nM, b2 = 500 nM and over

- GGAGGAGAAUAUGAUACCAGCAGAGAGAGAGAGGAAGUAUAGUGAUGUUAUAUGUGAGAAUGCCCUUGGCAGCAUAAGAAGAAGG [whbob_SS_Theo_B_sa87]: b0
- AAAUAAAGCAGUCACCCAGUGAUGUUGGAAGGAGCGUGCGAAAGCACAGGUAGGUCGCCGAUAGGACAAAGUCCAAGUGGCUGCA [#SwitchBubble 30 #K4Early]: b1
- CCCUAAAUAUGCAGUGAUGUUGCAACUGAUACCAGUAUCGAAAGAUACCCUUGGCAGCGGAAAACCGCUACGUAAUUUAAAAGGG [Ex Theophylline A K4 19]: b1

Category of "GCAUGGAUCGCAGGAUAUAGAUCCGUGAGUGAAUUCUUGCCAGUGAGGAGUGAUGUUCCUCAUGGGCUAGAAGGGCGAUCCAUGC" , please. b0

Category of AAGGUCACUACUACAGUGAUGUUGUGGGAGCAGGAUAUGCAGAAAUGCAGAAGGGCUCGCUCCAAGUGACCGAAUGAAACAUUCA [Omei KL FMN A SS A v1] , please. b2

Category of GGAUAGGACAGAGGAUAUCUCUGAGGCAAGAAAACUUGUCUCUAAAGAGAUGACUCAGUGAUGUUGGGAGAAGGCUGUCCUAUCG [FmnBX 10 - #SwitchBubble #StaticStem] , please. b0

Category of GUUGACAGACUGCAAAACUAGUCAACAGACUAGGAUAUCAGGAAACUGAGAAGGAGUCAAGUUGCAGUGAUGUUGCAAGAAUAAU [KL-SSFMN-A27] , please. b1

Category of UUUGUAGAGGGAAGGAGCGUGAAAGAGAAAGAAUAUAGUGAUGUUAUAUAGAAGAAAGAAUCACAGGUAGGUCGCCCGGAGGAGG [SSArgB.E] , please. b2

Category of CCAUUCAUUUACGAUACCAGUCUAAUAUAUUUAAUCAAAACCCUCGCCGAGUGAUGUUCGGACCCUUGGCAGCGUCUGCGAGAGG [oookmullin] , please. b2

Category of UUAGGAGAGGGAAGGAGCGUGAAAGAGAAAGAAUAUAGUGAUGUUAUAUAGAAGAAAGAAUCACAGGUAGGUCGCCCGGAGGAGG [SSArgB.C] , please. b1

Category of UAGUCAUACAGAGGAUAUCGUAUGAGUGAUGUUCAUACGACAUAAUCAAAUUGUAUUGAUGUUCGACGAGAAGGCUGUAUGACUA [FMN B Ex t1] , please. b0

Category of CAGAUGUAGGCGGCCGCCACUCUCAUUACCGUACGCAAGUAUGAUUAGAAGUGAUGUUUCUCGGUGAGGACCGGGCCAUUCCCGA [theeternabot_sameState_KL_Trp_B_27] , please. b2
